Test system: Plasmodium falciparum
TEST NAME: Antiplasmodial activity against chloroquine-sensitive Plasmodium falciparum NF54
Format: functional, organism-based
pIC50: −log10 of the molar value.
Entries and their measured pIC50 follow.
ATTRIBUTE MEASURED: pIC50

>>> recorded_result("COc1cc(OC)c2c(c1C)O[C@H](c1ccccc1)CC2=O")
4.70
>>> recorded_result("Oc1cc(O)c2c(c1)O[C@H](c1ccc(O)c(O)c1)[C@@H](O)C2")
3.84
>>> recorded_result("O=c1cc(-c2ccccc2)oc2ccc(O)cc12 [6-HYDROXYFLAVONE]")
5.28
>>> recorded_result("O=c1cc(-c2ccccc2)oc2cc(O)cc(O)c12")
4.53
>>> recorded_result("O=c1c(O)c(-c2ccccc2)oc2cc(O)cc(O)c12")
4.40
>>> recorded_result("O=c1c(O)c(-c2ccc(O)cc2)oc2cc(O)cc(O)c12")
4.52
>>> recorded_result("O=C1C[C@@H](c2ccc(O)cc2)Oc2cc(O)cc(O)c21")
3.85
>>> recorded_result("O=c1c(O)c(-c2ccccc2)oc2ccc(O)cc12")
4.44
>>> recorded_result("COc1cc2oc(-c3ccc(O)cc3)cc(=O)c2c(O)c1OC")
4.77

----------
Below: a set of entries, each annotated with reported pIC50.
ASSAY SYSTEM: UniProtKB Q965D6
Sequence (Q965D6 whole entry): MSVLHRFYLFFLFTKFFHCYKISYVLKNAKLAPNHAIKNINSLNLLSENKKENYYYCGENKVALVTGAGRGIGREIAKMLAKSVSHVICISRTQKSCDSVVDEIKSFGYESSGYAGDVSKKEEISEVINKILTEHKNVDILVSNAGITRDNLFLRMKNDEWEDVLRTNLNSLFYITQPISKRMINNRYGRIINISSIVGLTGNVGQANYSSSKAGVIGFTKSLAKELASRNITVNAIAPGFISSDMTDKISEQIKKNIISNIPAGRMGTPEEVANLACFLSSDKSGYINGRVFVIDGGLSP
pIC50: −log10 of the molar value.
ATTRIBUTE MEASURED: pIC50

>>> recorded_result("O=C(O[C@@H]1Cc2c(O)cc(O)cc2O[C@H]1c1ccc(O)c(O)c1)c1cc(O)c(O)c(O)c1 [(-)-CATECHINGALLATE]")
6.00
>>> recorded_result("O=c1c(O)c(-c2ccccc2)oc2cc(O)cc(O)c12")
4.00
>>> recorded_result("O=c1c(O)c(-c2cc(O)c(O)c(O)c2)oc2cc(O)cc(O)c12")
4.85
>>> recorded_result("COc1cc(-c2oc3cc(O)cc(O)c3c(=O)c2O)ccc1O")
5.08
>>> recorded_result("O=c1cc(-c2ccc(O)c(O)c2)oc2cc(O)cc(O)c12")
5.40
>>> recorded_result("O=c1c(O)c(-c2ccc(O)c(O)c2)oc2cc(O)ccc12")
5.39
>>> recorded_result("O=C(O[C@@H]1Cc2c(O)cc(O)cc2O[C@@H]1c1ccc(O)c(O)c1)c1cc(O)c(O)c(O)c1 [EPICATECHIN GALLATE]")
6.00
>>> recorded_result("O=c1c(O)c(-c2ccc(O)c(O)c2)oc2cc(O)cc(O)c12")
5.27

----------
Recorded pIC50 values for a group of molecules are listed next.
System: Plasmodium falciparum
TEST NAME: Antiplasmodial activity against chloroquine-sensitive Plasmodium falciparum NF54
Assay type: functional, organism-based
pIC50: −log10 of the molar value.
ATTRIBUTE MEASURED: pIC50

>>> recorded_result("Oc1cc(O)c2c(c1)O[C@@H](c1ccc(O)c(O)c1)[C@H](O)C2 [(-)-CATECHIN]")
"< 3.82"
>>> recorded_result("Oc1cc(O)c2c(c1)O[C@H](c1cc(O)c(O)c(O)c1)[C@H](O)C2 [EPIGALLOCATECHIN]")
"< 3.82"
>>> recorded_result("Oc1cc(O)c2c(c1)O[C@@H](c1cc(O)c(O)c(O)c1)[C@H](O)C2 [(-)-GALLOCATECHIN]")
"< 3.82"
